# System: panel of 55 breast cancer cell lines
# PROCEDURE TEXT: Cell growth inhibition assay (Cell Titer Glo, 72 h, 9 doses; GI50, TGI, LC50)
# Type: cell-based, human
# RUN CONDITIONS: Homo sapiens, HCC1937, cell line HCC1937; read-out: GI50 (converted)
PROPERTY LABEL: GI50 (µM)
All answers are understood in µM, so give the number only.

Answered cases to consult:
CCNCCCNC/C=C\CNCCCNCC :: 6.92
Cc1[nH]c2ccccc2c1CCNCc1ccc(/C=C/C(=O)NO)cc1 :: 0.191
COc1cc(Nc2c(C#N)cnc3cc(OCCCN4CCN(C)CC4)c(OC)cc23)c(Cl)cc1Cl :: 1.45
Nc1nc2[nH]cc(CCc3ccc(C(=O)N[C@@H](CCC(=O)O)C(=O)O)cc3)c2c(=O)[nH]1 :: 155

Supply reported GI50 belonging to this molecule: CN(C)C/C=C/C(=O)Nc1cc2c(Nc3ccc(F)c(Cl)c3)ncnc2cc1O[C@H]1CCOC1
2.09

Tell me GI50 reported for Cc1ccc(C(=O)N(CCCN)[C@@H](c2nc3cc(Cl)ccc3c(=O)n2Cc2ccccc2)C(C)C)cc1
0.282

Fill in GI50 for record CO[C@H]1C[C@@H]2CC[C@@H](C)[C@@](O)(O2)C(=O)C(=O)N2CCCC[C@H]2C(=O)O[C@H]([C@H](C)C[C@@H]2CC[C@@H](O)[C@H](OC)C2)CC(=O)[C@H](C)/C=C(\C)[C@@H](O)[C@@H](OC)C(=O)[C@H](C)C[C@H](C)/C=C/C=C/C=C/1C
1.23

# return recorded GI50 for entry CO[C@H]1C[C@@H]2CC[C@@H](C)[C@@](O)(O2)C(=O)C(=O)N2CCCC[C@H]2C(=O)O[C@H]([C@H](C)C[C@@H]2CC[C@@H](OC(=O)C(C)(CO)CO)[C@H](OC)C2)CC(=O)[C@H](C)/C=C(\C)[C@@H](O)[C@@H](OC)C(=O)[C@H](C)C[C@H](C)/C=C/C=C/C=C/1C
0.437

Read off the recorded GI50 for CC(C)C[C@H](NC(=O)[C@H](Cc1ccccc1)NC(=O)c1cnccn1)B(O)O
0.00759

Tell me its GI50 given CC/C(=C(\c1ccccc1)c1ccc(OCCN(C)C)cc1)c1ccccc1 as the entry.
166

Using known records, supply GI50 for CS(=O)(=O)CCNCc1ccc(-c2ccc3ncnc(Nc4ccc(OCc5cccc(F)c5)c(Cl)c4)c3c2)o1
16.6

Consider the molecule COc1cccc2c1C(=O)c1c(O)c3c(c(O)c1C2=O)C[C@@](O)(C(=O)CO)C[C@@H]3O[C@H]1C[C@H](N)[C@@H](O)[C@H](C)O1 [Epirubicin] and give its recorded GI50.
0.204

For the molecule COc1cc([C@@H]2c3cc4c(cc3[C@@H](O[C@@H]3O[C@@H]5CO[C@@H](C)O[C@H]5[C@H](O)[C@H]3O)[C@H]3COC(=O)[C@H]23)OCO4)cc(OC)c1O [Etoposide] , give its measured GI50 value.
4.57

Quote GI50 reported for CNC(=O)c1cc(Oc2ccc(NC(=O)Nc3ccc(Cl)c(C(F)(F)F)c3)cc2)ccn1 please.
513

Output measured GI50 for this item: Cn1cnc2c(F)c(Nc3ccc(Br)cc3Cl)c(C(=O)NOCCO)cc21
50.1

Hello, please tell me recorded GI50 for this one: C#Cc1cccc(Nc2ncnc3cc(OCCOC)c(OCCOC)cc23)c1
38.9

Specify reported GI50 for the molecule shown: CCN(CC)CCCCNc1ncc2cc(-c3cc(OC)cc(OC)c3)c(NC(=O)NC(C)(C)C)nc2n1
7.59

Please list GI50 recorded for the molecule NS(=O)(=O)OC[C@@H]1C[C@@H](n2ccc3c(N[C@H]4CCc5ccccc54)ncnc32)C[C@@H]1O
2.63

Dear colleague, please send me the reported GI50 for CCC1=C[C@@H]2CN(C1)Cc1c([nH]c3ccccc13)[C@@](C(=O)OC)(c1cc3c(cc1OC)N(C)[C@H]1[C@@](O)(C(=O)OC)[C@H](OC(C)=O)[C@]4(CC)C=CCN5CC[C@]31[C@@H]54)C2 when you can.
0.224

Check the records and state GI50 for O=C1c2ccccc2-[n+]2ccc3c([nH]c4ccccc43)c21
0.389

Note GI50 for the molecule shown: COc1cc2ncnc(Nc3ccc(F)c(Cl)c3)c2cc1OCCCN1CCOCC1
8.32

Using the record for Cc1cncc2cccc(S(=O)(=O)N3CCCN(C(=O)CN)C[C@@H]3C)c12 , state its measured GI50.
66.1

Please list GI50 recorded for the molecule CN(Cc1cnc2nc(N)nc(N)c2n1)c1ccc(C(=O)N[C@@H](CCC(=O)O)C(=O)O)cc1 [Methotrexate]
331

Annotate the molecule COC1=C2C[C@@H](C)C[C@H](OC)[C@H](O)[C@@H](C)/C=C(\C)[C@H](OC(N)=O)[C@@H](OC)/C=C\C=C(/C)C(=O)NC(=CC1=O)C2=O with its measured GI50.
0.0295

Tell me measured GI50 for CCN(CC)CCNC(=O)c1c(C)[nH]c(/C=C2\C(=O)Nc3ccc(F)cc32)c1C [Sunitinib Malate] please.
6.92

Specify measured GI50 for C/C(=C\c1csc(C)n1)[C@@H]1C[C@@H]2O[C@]2(C)CCC[C@H](C)[C@H](O)[C@@H](C)C(=O)C(C)(C)[C@@H](O)CC(=O)N1 [Ixabepilone] .
0.309
